// reported Log10TGI50 for each item listed
tested on: K-562; experiment: NCI 60 cell line panel screen (SRB); type: cell-based, human; details: K-562 (Leukemia); TGI: PG=0

CC1CCC2C(C)C(CC(O)(CO)CC3OC4OC5(C)CCC6C(C)CCC(C3C)C46OO5)OC3OC4(C)CCC1C32OO4 (centres unmarked) : >−4.00 log10M
CC1CCC2C(C)C(CC(COCC(=O)O)CC3OC4OC5(C)CCC6C(C)CCC(C3C)C46OO5)OC3OC4(C)CCC1C32OO4 (centres unmarked) [Compound 12b, bis-trioxane O-acetic acid] : >−4.30 log10M
CC1CCC2C(C)C(CC(COC(=O)CCC(=O)O)CC3OC4OC5(C)CCC6C(C)CCC(C3C)C46OO5)OC3OC4(C)CCC1C32OO4 (centres unmarked) [Compound 8a, bis-trioxane primary succinate monoester] : >−4.30 log10M
C[C@@H]1CC[C@H]2[C@@H](C)C(=O)O[C@@H]3O[C@]4(C)CC[C@@H]1[C@]32OO4 : >−4.00 log10M

Log10TGI50 for CC1CCC2C(C)C(CC(O)(CC3OC4OC5(C)CCC6C(C)CCC(C3C)C46OO5)CS(=O)(=O)c3ccc(C(=O)O)cc3)OC3OC4(C)CCC1C32OO4 (centres unmarked) [Compound 10c] is −4.75 log10M
